target: Cyclin-dependent kinase 4 (Homo sapiens) (UniProt P11802); conditions: at 0.1 µM
Sequence (P11802 whole entry): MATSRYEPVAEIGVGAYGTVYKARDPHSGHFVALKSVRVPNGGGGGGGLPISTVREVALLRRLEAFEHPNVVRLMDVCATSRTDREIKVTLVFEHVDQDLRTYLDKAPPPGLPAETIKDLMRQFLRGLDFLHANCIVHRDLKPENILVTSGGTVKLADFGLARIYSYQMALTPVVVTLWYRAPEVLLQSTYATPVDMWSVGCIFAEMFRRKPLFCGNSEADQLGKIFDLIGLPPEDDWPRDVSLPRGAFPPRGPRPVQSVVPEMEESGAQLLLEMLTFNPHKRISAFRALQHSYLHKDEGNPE
Description: GSK_PKIS: CDK4/cyclinD mean inhibition at 0.1 uM [Nanosyn]
// reported inhibition for each item listed
Express the result in % but write the number alone.

Sample answers from the record:
Reported inhibition for "O=C1Nc2ccccc2/C1=C/Nc1ccc2[nH]c(=O)[nH]c2c1" was 3.34

Reported inhibition for "Cc1ccc(C(=O)NC2CC2)cc1-c1ccc2[nH]ncc2c1" was -0.45

Reported inhibition for "COc1cc2ncnc(Nc3ccc4c(cnn4Cc4ccccc4)c3)c2cc1OC" was 1.5

Further cases:
Reported inhibition for "COc1cc2ncnc(Nc3ccc(C)c(O)c3)c2cc1OC" was 4.46

Reported inhibition for "Nc1nccc(-c2c(-c3ccc(F)cc3)ncn2CCCN2CCOCC2)n1" was 3.06

Reported inhibition for "Oc1cccc(-c2nc(-c3ccccc3)[nH]c2-c2ccncc2)c1" was 2.45

Reported inhibition for "CN(c1ccc(NC(=O)Nc2ccc(OC(F)(F)F)cc2)cc1)c1ccnc(Nc2cccc(S(N)(=O)=O)c2)n1" was 0.85

Reported inhibition for "COc1cc2ncn(-c3cc(OCc4ccccc4S(C)(=O)=O)c(C#N)s3)c2cc1OC" was 3.64

Reported inhibition for "NS(=O)(=O)c1ccc(Nc2cc(-c3cccc(O)c3)n[nH]2)cc1" was 3.25

Reported inhibition for "CN(C)C(=O)O[C@@H]1CN[C@@H](C#Cc2cc3ncnc(Nc4ccc(OCc5cccc(F)c5)c(Cl)c4)c3s2)C1" was 2.09

Reported inhibition for "CCS(=O)(=O)c1ccc(OC)c(Nc2nccc(N(C)c3ccc4c(C)n[nH]c4c3)n2)c1" was 3.02

----------
molecular target: Ribosomal protein S6 kinase alpha-4 (Homo sapiens) (UniProt O75676); conditions: at 0.1 µM;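 also: values are mean inhibition of MSK2, from GSK PKIS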
Sequence (O75676 whole entry, looked up): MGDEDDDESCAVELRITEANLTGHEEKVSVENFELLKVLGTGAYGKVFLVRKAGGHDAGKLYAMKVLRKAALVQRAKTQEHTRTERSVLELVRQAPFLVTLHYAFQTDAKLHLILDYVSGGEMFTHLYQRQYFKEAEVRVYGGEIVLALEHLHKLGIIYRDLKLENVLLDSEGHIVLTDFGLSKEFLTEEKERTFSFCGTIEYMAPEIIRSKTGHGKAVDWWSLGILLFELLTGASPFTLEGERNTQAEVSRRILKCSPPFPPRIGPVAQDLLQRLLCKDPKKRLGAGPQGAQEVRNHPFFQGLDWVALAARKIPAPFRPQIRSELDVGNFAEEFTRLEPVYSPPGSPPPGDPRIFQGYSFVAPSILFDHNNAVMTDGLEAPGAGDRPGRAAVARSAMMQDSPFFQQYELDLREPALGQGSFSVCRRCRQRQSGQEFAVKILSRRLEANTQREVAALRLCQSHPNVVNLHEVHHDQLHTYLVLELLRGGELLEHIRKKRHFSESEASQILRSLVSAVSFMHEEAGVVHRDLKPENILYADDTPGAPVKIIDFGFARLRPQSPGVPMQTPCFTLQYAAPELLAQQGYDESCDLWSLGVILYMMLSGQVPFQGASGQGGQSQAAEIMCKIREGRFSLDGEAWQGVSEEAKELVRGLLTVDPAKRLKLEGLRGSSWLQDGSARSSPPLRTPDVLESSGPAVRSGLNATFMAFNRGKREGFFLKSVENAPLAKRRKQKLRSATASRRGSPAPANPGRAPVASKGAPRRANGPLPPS
Property Measured: inhibition (%)
Express the result in % but write the number alone.

Sample answers from the record:
Reported inhibition for "COc1cc2ncnc(Nc3ccc(C)c(O)c3)c2cc1OC" was 4.36

Reported inhibition for "ON=C1CCc2cc(-c3nc(C4CCNCC4)[nH]c3-c3ccncc3)ccc21" was -0.82

Reported inhibition for "Nc1ccc(C#Cc2cncnc2Nc2ccc(OCc3cccc(F)c3)c(Cl)c2)cc1" was 1.93

Reported inhibition for "CS(=O)(=O)CCNCc1nc(-c2ccc3ncnc(Nc4ccc(OCc5cccc(C(F)(F)F)c5)cc4)c3c2)cs1" was 1.54

Please examine the following record next.
Reported inhibition for "NC(=O)c1cccc(Nc2nccc(Nc3cccc(F)c3)n2)c1" was 0.68

----------
// reported inhibition for each item listed
Target: Serine/threonine-protein kinase BRSK1 (Homo sapiens)
Sequence (whole entry): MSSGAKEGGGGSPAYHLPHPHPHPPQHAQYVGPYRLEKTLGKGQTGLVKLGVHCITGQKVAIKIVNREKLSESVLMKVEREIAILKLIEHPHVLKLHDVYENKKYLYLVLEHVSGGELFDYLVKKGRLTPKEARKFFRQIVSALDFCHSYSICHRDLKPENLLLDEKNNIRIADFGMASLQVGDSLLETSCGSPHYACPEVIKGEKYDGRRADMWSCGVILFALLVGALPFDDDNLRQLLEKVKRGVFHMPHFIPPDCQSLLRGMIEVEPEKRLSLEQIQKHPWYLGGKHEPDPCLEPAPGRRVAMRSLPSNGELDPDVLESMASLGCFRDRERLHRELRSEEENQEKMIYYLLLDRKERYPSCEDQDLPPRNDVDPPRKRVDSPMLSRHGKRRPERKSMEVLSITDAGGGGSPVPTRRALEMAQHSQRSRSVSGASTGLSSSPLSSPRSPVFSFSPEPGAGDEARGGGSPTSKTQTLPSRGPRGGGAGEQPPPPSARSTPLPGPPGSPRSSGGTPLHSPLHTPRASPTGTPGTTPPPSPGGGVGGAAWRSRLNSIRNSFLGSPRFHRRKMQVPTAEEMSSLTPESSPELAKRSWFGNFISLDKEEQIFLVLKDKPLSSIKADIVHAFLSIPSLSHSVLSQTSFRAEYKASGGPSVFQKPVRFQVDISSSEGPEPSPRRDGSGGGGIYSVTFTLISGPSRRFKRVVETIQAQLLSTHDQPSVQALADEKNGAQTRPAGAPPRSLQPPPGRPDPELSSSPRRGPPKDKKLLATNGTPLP
Conditions: at 0.1 µM
Description: GSK_PKIS: BRSK1 mean inhibition at 0.1 uM [Nanosyn]
Express the result in % but write the number alone.

Sample answers from the record:
Reported inhibition for "CCn1c(-c2nonc2N)nc2c(C#CC(C)(C)O)nc(OCCNC)cc21" was 1.73

Reported inhibition for "CCS(=O)(=O)c1ccc(OC)c(Nc2nccc(N(C)c3ccc4c(C)n[nH]c4c3)n2)c1" was 0.17

Further cases:
Reported inhibition for "COc1cccc(-n2nc(C)c3c(N/N=C(\C)c4ccncc4)ncnc32)c1" was 0.77

Reported inhibition for "CN(C)C(=O)O[C@@H]1CN[C@@H](C#Cc2cc3ncnc(Nc4ccc(OCc5cccc(F)c5)c(Cl)c4)c3s2)C1" was 1.77

Reported inhibition for "COc1cccc(-n2ncc3c(N/N=C/c4ccc(C)cc4)ncnc32)c1" was 6.04

Reported inhibition for "Cc1ccc2c(c1)/C(=N/Nc1ccc(S(N)(=O)=O)cc1)C(=O)N2" was 2.87

----------
// reported inhibition for each item listed
target: Tyrosine-protein kinase TXK (Homo sapiens) (UniProt P42681); details: at 0.1 µM;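 also: each listed value is a mean percent inhibition of TXK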
Sequence (P42681 whole entry): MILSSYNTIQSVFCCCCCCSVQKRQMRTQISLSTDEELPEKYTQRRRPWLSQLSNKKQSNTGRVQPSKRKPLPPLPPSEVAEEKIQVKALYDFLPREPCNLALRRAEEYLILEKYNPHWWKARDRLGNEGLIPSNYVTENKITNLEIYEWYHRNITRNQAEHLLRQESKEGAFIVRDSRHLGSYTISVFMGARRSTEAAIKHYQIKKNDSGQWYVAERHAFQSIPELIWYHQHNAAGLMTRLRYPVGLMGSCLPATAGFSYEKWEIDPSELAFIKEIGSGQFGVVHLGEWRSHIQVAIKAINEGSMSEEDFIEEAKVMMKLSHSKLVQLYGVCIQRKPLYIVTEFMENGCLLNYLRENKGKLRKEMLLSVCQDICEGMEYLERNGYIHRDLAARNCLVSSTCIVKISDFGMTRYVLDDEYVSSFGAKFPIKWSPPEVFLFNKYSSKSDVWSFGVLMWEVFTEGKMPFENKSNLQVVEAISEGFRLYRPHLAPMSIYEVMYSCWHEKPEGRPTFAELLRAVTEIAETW
Express the result in % but write the number alone.

Reported inhibition for "CN(C)CCCn1c(-c2nonc2N)nc2cnccc21" was 3.61

Further cases:
Reported inhibition for "NS(=O)(=O)c1cccc(-c2cc3ccncc3cc2OCc2ccccc2)c1" was 4.1

Reported inhibition for "Cc1ccc2c(-c3ccnc(Nc4ccc5c(c4)OCCO5)n3)c(-c3ccc(C(F)(F)F)cc3)nn2n1" was -1.11

Reported inhibition for "COc1ccc2ncnc(Nc3ccc(OCc4ccccc4)cc3)c2c1" was 2.73

Reported inhibition for "CN1CCN(C(=O)c2ccc(NC(=O)Nc3ccc(N(C)c4ccnc(Nc5ccc(CS(C)(=O)=O)cc5)n4)cc3)cc2)CC1" was 33.8

Reported inhibition for "Nc1nccc(C#Cc2cncnc2Nc2ccc(OCc3cccc(F)c3)c(Cl)c2)n1" was 3.85

----------
system: Tyrosine-protein kinase ABL1 (Homo sapiens), P00519 [T315I]; conditions: at 0.1 µM
// reported inhibition for each item listed
Express the result in % but write the number alone.

Reported inhibition for "Nc1ccc(C#Cc2cncnc2Nc2ccc(OCc3cccc(F)c3)c(Cl)c2)cc1" was 1.6

Further cases:
Reported inhibition for "O=C1Nc2ccccc2/C1=C/Nc1ccc2[nH]c(=O)[nH]c2c1" was 4.38

Reported inhibition for "COc1cc(/C=N/Nc2ncnc3c2cnn3C(C)C)ccc1O" was 9.92

Reported inhibition for "Oc1cccc(-c2nc(-c3ccccc3)[nH]c2-c2ccncc2)c1" was 3.52

Reported inhibition for "CN(C)C(=O)O[C@H]1CN[C@H](C#Cc2cc3ncnc(Nc4ccc(OCc5cccc(F)c5)c(Cl)c4)c3s2)C1" was 2.75

----------
molecular target: Dual specificity tyrosine-phosphorylation-regulated kinase 1B (Homo sapiens) (UniProt Q9Y463); conditions: at 0.1 µM;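 also: values are mean percent inhibition of DYRK1B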
Sequence (Q9Y463 whole entry, looked up): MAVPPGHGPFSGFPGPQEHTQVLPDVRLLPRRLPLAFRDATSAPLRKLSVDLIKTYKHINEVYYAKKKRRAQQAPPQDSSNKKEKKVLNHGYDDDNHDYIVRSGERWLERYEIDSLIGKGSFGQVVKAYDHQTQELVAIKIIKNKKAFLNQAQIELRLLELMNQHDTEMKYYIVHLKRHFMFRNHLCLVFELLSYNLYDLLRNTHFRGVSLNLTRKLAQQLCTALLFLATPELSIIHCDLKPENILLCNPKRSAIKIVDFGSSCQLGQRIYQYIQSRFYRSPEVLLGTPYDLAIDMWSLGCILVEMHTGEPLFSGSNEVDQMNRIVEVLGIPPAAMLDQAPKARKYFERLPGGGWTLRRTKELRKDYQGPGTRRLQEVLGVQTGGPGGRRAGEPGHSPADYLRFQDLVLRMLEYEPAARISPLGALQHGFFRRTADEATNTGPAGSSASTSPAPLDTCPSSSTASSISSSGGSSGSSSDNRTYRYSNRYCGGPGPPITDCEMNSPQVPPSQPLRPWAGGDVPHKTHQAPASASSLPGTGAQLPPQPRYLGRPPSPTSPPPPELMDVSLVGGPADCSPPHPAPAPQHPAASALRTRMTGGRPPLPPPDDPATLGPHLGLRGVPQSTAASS
// reported inhibition for each item listed
Express the result in % but write the number alone.

Reported inhibition for "C[C@@H](Oc1cc(-n2cnc3ccc(OC[C@@H](O)CO)cc32)sc1C(N)=O)c1ccccc1Cl" was 1.13

Reported inhibition for "COc1ccc2ncnc(Nc3ccc(OCc4ccccc4)cc3)c2c1" was -0.87

Reported inhibition for "COC(=O)Nc1nc2cc(Oc3ccc(NC(=O)Nc4cccc(Br)c4)cc3)ccc2[nH]1" was 0.23

Reported inhibition for CCCN1CCCC(c2ccc(Nc3nc(Nc4cc(F)ccc4C(N)=O)c4cc[nH]c4n3)c(OC)c2)C1 (stereo unspecified) was 72

Reported inhibition for "Nc1nccc(-c2c(-c3ccc(F)cc3)ncn2CCCN2CCOCC2)n1" was 0.74

Further cases:
Reported inhibition for "Cc1cc(-c2ccccn2)cc(C)c1/C=C/c1cncc(-c2nn[nH]n2)c1" was 2.58

Reported inhibition for "CS(=O)(=O)CCNCc1nc(-c2ccc3ncnc(Nc4ccc(OCc5cccc(C(F)(F)F)c5)cc4)c3c2)cs1" was 0.58

Reported inhibition for "COc1cccc(-n2nc(C)c3c(N/N=C(\C)c4ccncc4)ncnc32)c1" was 1.32

Reported inhibition for "COc1cccc(-n2ncc3c(N/N=C/c4ccc(C)cc4)ncnc32)c1" was 3.97

Reported inhibition for "Cc1ccc(C(=O)NC2CC2)cc1-c1ccc2[nH]ncc2c1" was 1.19

Reported inhibition for "NC(=O)c1sc(-n2cnc3ccccc32)cc1OCc1ccccc1Br" was 0.66

Reported inhibition for "Cc1cc(O)cc(C)c1/C=C/c1cncc(C(=O)N(C)C)c1" was 1.15

Reported inhibition for "Cc1cc(Cl)cc2c1NC(=O)C2=NNc1ccc(S(N)(=O)=O)cc1" was -0.62

Reported inhibition for "NS(=O)(=O)c1ccc(-c2cc3ccncc3cc2OCc2ccccc2)cc1" was 0.97

Reported inhibition for "COC(=O)c1cncc(/C=C/c2c(C)cc(O)cc2C)c1" was 0.83

Reported inhibition for "Cc1ccc(NC(=O)CC2CC2)cc1-c1ccc(C(=O)NCC2CC2)cc1" was 0.61

Reported inhibition for "CCn1c(-c2nonc2N)nc2c(C#CC(C)(C)O)nc(OCCNC)cc21" was -0.33

Reported inhibition for "CN(c1ccc(NC(=O)Nc2ccc(OC(F)(F)F)cc2)cc1)c1ccnc(Nc2cccc(S(N)(=O)=O)c2)n1" was -2.14

Reported inhibition for "O=C1Nc2ccc(-c3cccnc3)cc2C1=Cc1cc(Br)c(O)c(Br)c1" was 9

Reported inhibition for "Cc1ccc(O)cc1Nc1ccnc2ccc(S(C)(=O)=O)cc12" was 0.55

Reported inhibition for "NS(=O)(=O)c1cccc(Nc2cc(-c3ccc(F)cc3)n[nH]2)c1" was -1.06
